- testSystem: Alpha-1 adrenergic receptor (Bos taurus)
- assayProcedure: Binding affinity against alpha-1 adrenergic receptor from calf cerebral cortex, using [3H]prazosin as the radioligand
pKi: −log10 of the molar value.
pKi reference
measureName: pKi

- recordSmiles: "Cc1ccc(NCC2=NCCN2)cc1"
  resultValue: 6.64
- recordSmiles: "CCN(CC1=NCCN1)c1ccc(C)cc1"
  resultValue: 6.52
- recordSmiles: "Cc1ccc(N(CC2=NCCN2)C2CCCCC2)cc1"
  resultValue: 6.37

Origin of values: BindingDB's records for doi:10.1021/jm00366a022
